Source listed as PubChem BioAssay (EPA / NIEHS).

# assayed system: Cellular tumor antigen p53 (Homo sapiens) (UniProt P04637)
# Sequence (P04637 whole entry, looked up): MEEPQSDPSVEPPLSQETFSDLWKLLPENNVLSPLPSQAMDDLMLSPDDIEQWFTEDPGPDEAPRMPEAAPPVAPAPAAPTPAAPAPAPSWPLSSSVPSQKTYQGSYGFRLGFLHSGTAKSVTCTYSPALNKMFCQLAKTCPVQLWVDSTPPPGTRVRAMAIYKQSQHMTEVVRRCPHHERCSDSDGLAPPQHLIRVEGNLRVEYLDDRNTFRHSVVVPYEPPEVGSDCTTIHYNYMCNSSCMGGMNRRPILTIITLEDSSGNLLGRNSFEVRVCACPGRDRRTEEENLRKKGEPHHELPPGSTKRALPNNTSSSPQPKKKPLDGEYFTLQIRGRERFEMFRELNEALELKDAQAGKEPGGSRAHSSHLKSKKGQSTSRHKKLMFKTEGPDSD
# protocol text: TOX21_p53_BLA_p5_ratio: Tox21 HCT-116 p53 Agonism Beta-lactamase Assay, Ratio, Phase 5 (AID 2283599)
# Experimental: TOX21_p53_BLA_p5 is a cell-based, single-readout assay that uses HCT116, a human intestinal cell line, […] in a 1536-well plate.TOX21_p53_BLA_p5_ratio is an assay readout measuring reporter gene via receptor activity and designed using inducible reporter (beta lactamase induction) detected with GAL4 b-lactamase reporter gene. […] This assay endpoint, TOX21_p53_BLA_p5_ratio, was analyzed in the positive analysis fitting direction relative to DMSO as the negative control and baseline of activity. […]
Results filed as inconclusive are left out. The source made the active and inactive calls. The calls were made as follows: active = hit-call score of the fitted dose curve at least 0.9, where 1 is the maximum; inconclusive = response in the unintended direction; inactive = score below 0.9.
Classes used: YES (active), NO (inactive)

{"molecule": "CCC(C)CO (centres undefined)", "group": "NO"}
{"molecule": "CCC(=O)OC(C)c1ccccc1 (centres undefined)", "group": "NO"}
{"molecule": "CCCCOC(=O)[C@H](C)O", "group": "NO"}
{"molecule": "CCCCCCCC/C=C\\CCCCCCCC(=O)N(C)CC(=O)O", "group": "YES"}
{"molecule": "CC(O)C#CC(C)O (centres undefined)", "group": "NO"}
{"molecule": "CCOC(OCC)OCC", "group": "NO"}
{"molecule": "CO[Si](CCCOCC1CO1)(OC)OC (centres undefined)", "group": "NO"}
{"molecule": "CCCCCC/C=C/CCCCCCCC(=O)O", "group": "NO"}
{"molecule": "CCN=C1C=CC(=C(c2ccc(N(CC)CC)cc2)c2ccc(N(CC)CC)cc2)c2ccccc21", "group": "YES"}
{"molecule": "CN(N=O)C(=O)N[C@@H]1[C@@H](O)[C@H](O)[C@@H](CO)O[C@@H]1O", "group": "NO"}
{"molecule": "O=C1C=CC(=O)N1c1ccccc1", "group": "YES"}
{"molecule": "CSc1ccc(Cl)cc1", "group": "NO"}
{"molecule": "COC(=O)c1ccc(C=O)cc1", "group": "NO"}
{"molecule": "C[C@]12CC[C@H]3C(=CCc4cc(O)ccc43)[C@@H]1CCC2=O", "group": "NO"}

* * *

# protocol text: BSK_SAg_SRB: Viability Assessment in the BioMAP Diversity Plus: SAg Assay (AID 2283096);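 also: cells read one day after compound addition; hits may be either gain or loss of signal compared with DMSO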
# cond: primary human HUVEC with PBMC
Calls of active or inactive are those of the source. How the source made its calls: active means hit-call score of the fitted dose curve at least 0.9, where 1 is the maximum; inactive means score below 0.9.
Classes used: active, inactive

{"compound": "OCC(F)(F)C(F)(F)C(F)(F)C(F)(F)C(F)(F)C(F)(F)C(F)(F)C(F)(F)CO", "group": "inactive"}
{"compound": "C=CC(=O)OCC(F)(F)C(F)(F)C(F)(F)C(F)(F)C(F)(F)C(F)(F)C(F)(F)C(F)F", "group": "inactive"}
{"compound": "Brc1nc2ccccc2s1", "group": "inactive"}
{"compound": "C=CC(=O)OCCC(F)(F)C(F)(F)C(F)(F)C(F)(F)F", "group": "inactive"}
{"compound": "O=C1c2c(O)ccc(Nc3ccc(CCO)cc3)c2C(=O)c2c([N+](=O)[O-])ccc(O)c21", "group": "inactive"}
{"compound": "FC(F)(F)C(F)(F)C(F)(F)C(F)(F)C(F)(F)C(F)(F)C(F)(F)CCI", "group": "inactive"}
{"compound": "C=C(C)C(=O)OCC(F)(F)C(F)(F)C(F)(F)C(F)F", "group": "inactive"}
{"compound": "NCC(F)(F)C(F)(F)C(F)(F)C(F)(F)C(F)(F)C(F)(F)F", "group": "inactive"}
{"compound": "O=C(O)C(F)(F)C(F)(F)C(F)(F)C(F)(F)C(F)(F)C(F)(F)C(F)F", "group": "inactive"}
{"compound": "C[C@]12CC[C@H]3C(=CCc4cc(O)ccc43)[C@@H]1CCC2=O", "group": "inactive"}
{"compound": "O=C=NCc1cccc(CN=C=O)c1", "group": "inactive"}
{"compound": "CCOC(C=C(C)CCC=C(C)C)OCC", "group": "inactive"}
{"compound": "CN(C(=O)C(F)(F)C(F)(F)C(F)(F)F)[Si](C)(C)C", "group": "inactive"}
{"compound": "OCC(O)CC(F)(F)C(F)(F)C(F)(F)C(F)(F)F (centres undefined)", "group": "inactive"}
{"compound": "CC1=CC2C3C=CC(C3)C2C1C (centres undefined)", "group": "inactive"}
{"compound": "FC(F)(F)C(F)(F)C(F)(F)CC1CO1 (centres undefined)", "group": "inactive"}
{"compound": "OCCCCC(F)(F)C(F)(F)C(F)(F)C(F)(F)F", "group": "inactive"}
{"compound": "CC(C)CCCC(C)CCO (centres undefined)", "group": "inactive"}
{"compound": "O=C(Cl)C(F)(F)C(F)(F)C(F)(F)C(F)(F)C(F)(F)C(F)(F)F", "group": "inactive"}
{"compound": "O=C1C=CC(=O)N1c1ccc(Cc2ccc(N3C(=O)C=CC3=O)cc2)cc1", "group": "active"}
{"compound": "O=S(=O)(O)CCC(F)(F)C(F)(F)C(F)(F)C(F)(F)C(F)(F)C(F)(F)C(F)(F)C(F)(F)F", "group": "inactive"}
{"compound": "NC(=O)C(F)(F)C(F)(F)C(F)(F)F", "group": "inactive"}
{"compound": "NCC(F)(F)C(F)(F)C(F)(F)C(F)(F)C(F)(F)C(F)(F)C(F)(F)C(F)(F)F", "group": "inactive"}
{"compound": "O=C=Nc1cccc2c(N=C=O)cccc12", "group": "inactive"}
{"compound": "Cc1cc(O)c(C(C)(C)C)cc1C(C)(C)C", "group": "active"}
{"compound": "OCC(F)(F)C(F)(F)C(F)(F)CO", "group": "inactive"}
{"compound": "OCC(O)CC(F)(F)C(F)(F)C(F)(F)C(F)(F)C(F)(F)C(F)(F)C(F)(F)C(F)(F)F (centres undefined)", "group": "inactive"}
{"compound": "COC(F)(C(F)F)C(F)(F)F (centres undefined)", "group": "inactive"}
{"compound": "O=C(O)C(F)(F)C(F)(F)C(F)(F)OC(F)(F)F", "group": "inactive"}
{"compound": "FC(F)(F)C(F)(F)C(F)(F)C(F)(F)C(F)(F)C(F)(F)CC[Si](Cl)(Cl)Cl", "group": "inactive"}
{"compound": "CO[Si](C)(CCC(F)(F)C(F)(F)C(F)(F)C(F)(F)C(F)(F)C(F)(F)F)OC", "group": "inactive"}
{"compound": "CCOC(=O)CC(=O)C(F)(F)C(F)(F)F", "group": "inactive"}
{"compound": "O=C(O)C(F)(F)C(F)(F)C(F)(F)OC(F)(C(F)(F)F)C(F)(F)F", "group": "inactive"}
{"compound": "O=C(O)C(F)(F)C(F)(F)C(F)(F)C(=O)O", "group": "inactive"}
{"compound": "C[Si](Cl)(Cl)CCC(F)(F)C(F)(F)C(F)(F)C(F)(F)C(F)(F)C(F)(F)F", "group": "inactive"}
{"compound": "O=C(O)C(F)(F)OC(F)(F)C(F)(F)OC(F)(F)C(F)(F)OC(F)(F)F", "group": "inactive"}
{"compound": "NC(=O)C(F)(F)C(F)(F)C(F)(F)C(F)(F)C(F)(F)C(F)(F)C(F)(F)F", "group": "inactive"}
{"compound": "O=S(=O)(OCC(F)(F)F)C(F)(F)C(F)(F)C(F)(F)C(F)(F)F", "group": "inactive"}
{"compound": "O=C(O)CCC(F)(F)C(F)(F)C(F)(F)F", "group": "inactive"}

* * *

# protocol text: ATG_BRE_CIS: Attagene CIS-FACTORIAL HepG2 Assay for human Bone Morphogenetic Protein (BMP) Response Element (BRE) (AID 2282933)
# cond: HepG2 BMP response element reporter, Attagene transcription factor profiling; actives raise or lower the signal
The source made the active and inactive calls. How the source made its calls: active means hit-call score of the fitted dose curve at least 0.9, where 1 is the maximum; inactive means score below 0.9.
Classes used: label 1 = active, label 0 = inactive

{"compound": "CCCCCCCCn1sc(Cl)c(Cl)c1=O", "group": "label 0"}
{"compound": "CCC(C)CO (stereo not given)", "group": "label 0"}
{"compound": "C=C(C)CCCC", "group": "label 0"}
{"compound": "COc1ccccc1C=O", "group": "label 0"}
{"compound": "C[Si](Cl)(Cl)CCC(F)(F)C(F)(F)C(F)(F)C(F)(F)C(F)(F)C(F)(F)F", "group": "label 0"}
{"compound": "O=C(O)C(F)(F)C(F)(F)C(F)(F)OC(F)(C(F)(F)F)C(F)(F)F", "group": "label 0"}
{"compound": "CN(N=O)C(=O)N[C@@H]1[C@@H](O)[C@H](O)[C@@H](CO)O[C@@H]1O", "group": "label 0"}
{"compound": "O=C(O)C(F)(F)C(F)(F)C(F)(F)C(F)(F)C(F)(F)C(F)(F)C(F)F", "group": "label 0"}
{"compound": "O=C=Nc1cccc2c(N=C=O)cccc12", "group": "label 0"}
{"compound": "COCCC(=O)OC", "group": "label 0"}
{"compound": "C[Si](C)O[Si](C)C", "group": "label 0"}
{"compound": "Cc1cc(C)c(O)c(C(C)(C)C)c1", "group": "label 0"}
{"compound": "CCOC(=O)C1CC(=O)C(=C(O)C2CC2)C(=O)C1 (stereo not given)", "group": "label 0"}
{"compound": "Nc1cc([N+](=O)[O-])cc(Cl)c1O", "group": "label 0"}
{"compound": "OCCCc1cccnc1", "group": "label 0"}
{"compound": "CC1=CCC2C(=O)OC(=O)C2C1 (stereo not given)", "group": "label 0"}
{"compound": "CC1CCCCC1", "group": "label 0"}
{"compound": "C=CC(=O)OCC(F)(F)C(F)(F)C(F)(F)C(F)(F)C(F)(F)C(F)(F)C(F)(F)C(F)F", "group": "label 0"}
{"compound": "CCCCCCCCCCCCC[N+](C)(C)Cc1ccccc1", "group": "label 1"}
{"compound": "O=C1C=CC(=O)N1c1ccccc1", "group": "label 0"}
